Provide the reported kon of each item.
- System Name: T1, monomeric human CSF1R ectodomain protein (human, UniProt P07333 20-517)
- T1 construct: also called biotinylated monomeric human CSF1R
- Assay: SPR Biacore, IgG captured, monomeric CSF1R analyte
// return numeric value only (unit: M⁻¹ s⁻¹, not printed)

For reference, reported kon for MH41 (antibody, human IgG4, V domains shown, Deimmunized MH5 derivative, human IgG4(S228P)/Ckappa IgG; also called MN41) VH: QVQLVQSGAEVKKPGSSVKVSCKASGYTFSSHYMIWVRQAPGQGLEWMGDINPYNGGANYAQKFQGRVTITADESTSTAYMELSSLRSEDTAVYYCAREGPYFSNLYVMDYWGRGTLVTVSS VL: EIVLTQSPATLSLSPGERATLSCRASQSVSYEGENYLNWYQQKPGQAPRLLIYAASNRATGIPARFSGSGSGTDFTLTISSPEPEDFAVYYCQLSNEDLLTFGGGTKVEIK stands at 1.28e+06

For reference, reported kon for MH32 (antibody, human IgG4, V domains shown, Deimmunized MH5 derivative, human IgG4(S228P)/Ckappa IgG; also called MN32) VH: QVQLVQSGAEVKKPGSSVKVSCKASGYTFSSAYMIWVRQAPGQGLEWMGDINPYNGGANYAQKFQGRVTITADESTSTAYMELSSLRSEDTAVYYCAREGPYFSNLYVMDYWGRGTLVTVSS VL: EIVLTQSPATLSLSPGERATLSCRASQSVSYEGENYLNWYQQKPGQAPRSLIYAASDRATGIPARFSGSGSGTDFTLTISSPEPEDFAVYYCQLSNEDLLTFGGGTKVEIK stands at 2.04e+06

For reference, reported kon for MH24 (antibody, human IgG4, V domains shown, Deimmunized MH5 derivative, human IgG4(S228P)/Ckappa IgG) VH: QVQLVQSGAEVKKPGSSVKVSCKASGYTFSSHYMIWVRQAPGQGLEWMGDINPYNGGANYAQKFQGRVTITADESTSTAYMELSSLRSEDTAVYYCAREGPYFSNLYVMDYWGQGTLVTVSS VL: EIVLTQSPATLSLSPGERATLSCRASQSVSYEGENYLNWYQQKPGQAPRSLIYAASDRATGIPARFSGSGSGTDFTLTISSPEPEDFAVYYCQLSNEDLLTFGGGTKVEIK stands at 2.46e+06

For reference, reported kon for MH11 (antibody, human IgG4, V domains shown, Deimmunized MH5 derivative, human IgG4(S228P)/Ckappa IgG) VH: QVQLVQSGAEVKKPGSSVKVSCKASGYTFSSNYMIWVRQAPGQGLEWMGDINPYNGGANYAQKFQGRVTITADESTSTAYMELSSLRSEDTAVYYCAREGPYFSNLYVMDYWGQGTLVTVSS VL: EIVLTQSPATLSLSPGERATLSCRASQSVSYEGENYLNWYQQKPGQAPRAAIYAASNRATGIPARFSGSGSGTDFTLTISSPEPEDFAVYYCQLSNEDLLTFGGGTKVEIK stands at 1.53e+06

For reference, reported kon for murine anti-CSF1R antibody 0301 (mu0301), v-domains in human IgG4(S228P) format (antibody, V domains shown) VH: EVQLQQSGPELVRPGASVKMSCKASGYTFTDNYMIWVKQSHGKSLEWIGDINPYNGGTTFNQKFKGKATLTVEKSSSTAYMQLNSLTSEDSAVYYCARESPYFSNLYVMDYWGQGTSVTVSS VL: NIVLTQSPASLAVSLGQRATISCKASQSVDYDGDNYMNWYQQKPGQPPKLLIYAASNLESGIPARFSGSGSGTDFTLNIHPVEEEDAATYYCHLSNEDLSTFGGGTKLEIK stands at 2.9e+06

For reference, reported kon for MH40 (antibody, human IgG4, V domains shown, Deimmunized MH5 derivative, human IgG4(S228P)/Ckappa IgG) VH: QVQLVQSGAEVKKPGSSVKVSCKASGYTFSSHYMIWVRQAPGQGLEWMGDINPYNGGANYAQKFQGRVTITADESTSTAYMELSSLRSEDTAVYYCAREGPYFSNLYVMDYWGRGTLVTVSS VL: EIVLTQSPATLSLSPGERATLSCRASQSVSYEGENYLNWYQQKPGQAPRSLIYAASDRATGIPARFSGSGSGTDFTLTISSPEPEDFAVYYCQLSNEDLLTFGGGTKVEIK stands at 2.05e+06

For reference, reported kon for MH20 (antibody, human IgG4, V domains shown, Deimmunized MH5 derivative, human IgG4(S228P)/Ckappa IgG) VH: QVQLVQSGAEVKKPGSSVKVSCKASGYTFSSSYMIWVRQAPGQGLEWMGDINPYNGGANYAQKFQGRVTITADESTSTAYMELSSLRSEDTAVYYCAREGPYFSNLYVMDYWGQGTLVTVSS VL: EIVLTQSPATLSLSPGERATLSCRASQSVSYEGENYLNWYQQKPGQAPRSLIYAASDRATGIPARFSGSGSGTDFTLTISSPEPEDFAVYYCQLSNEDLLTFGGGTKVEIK stands at 2.49e+06

For reference, reported kon for MH21 (antibody, human IgG4, V domains shown, Deimmunized MH5 derivative, human IgG4(S228P)/Ckappa IgG) VH: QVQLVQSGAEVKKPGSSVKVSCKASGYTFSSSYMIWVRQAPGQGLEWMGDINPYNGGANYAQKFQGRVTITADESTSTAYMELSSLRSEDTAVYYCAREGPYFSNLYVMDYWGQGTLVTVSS VL: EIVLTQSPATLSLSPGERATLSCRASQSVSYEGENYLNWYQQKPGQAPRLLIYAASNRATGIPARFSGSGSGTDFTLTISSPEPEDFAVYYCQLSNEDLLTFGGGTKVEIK stands at 1.54e+06

For reference, reported kon for MH17 (antibody, human IgG4, V domains shown, Deimmunized MH5 derivative, human IgG4(S228P)/Ckappa IgG) VH: QVQLVQSGAEVKKPGSSVKVSCKASGYTFSSAYMIWVRQAPGQGLEWMGDINPYNGGANYAQKFQGRVTITADESTSTAYMELSSLRSEDTAVYYCAREGPYFSNLYVMDYWGQGTLVTVSS VL: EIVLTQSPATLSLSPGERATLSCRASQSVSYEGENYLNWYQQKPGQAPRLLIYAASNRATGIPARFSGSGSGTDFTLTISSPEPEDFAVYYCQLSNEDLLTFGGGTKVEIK stands at 1.35e+06

For reference, reported kon for MH16 (antibody, human IgG4, V domains shown, Deimmunized MH5 derivative, human IgG4(S228P)/Ckappa IgG; also called mAb-5) VH: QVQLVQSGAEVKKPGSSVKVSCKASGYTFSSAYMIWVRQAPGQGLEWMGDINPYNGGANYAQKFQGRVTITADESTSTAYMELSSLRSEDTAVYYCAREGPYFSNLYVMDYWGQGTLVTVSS VL: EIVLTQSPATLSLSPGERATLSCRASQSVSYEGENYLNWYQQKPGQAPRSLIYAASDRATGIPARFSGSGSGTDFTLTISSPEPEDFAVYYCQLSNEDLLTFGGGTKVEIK stands at 2.02e+06
